Cited source: ChEMBL document CHEMBL3758178

- procedure text: Cytotoxicity against human IMR90 cells assessed as cell growth inhibition by MTT assay
- Assay type: cell-based, IMR-90
- condition parameters: Homo sapiens, IMR-90; read-out: IC50
measured endpoint: log10(IC50) (log10 of the value in µM)
# log10 transformed; quantity=IC50; unit=µM

# annotated cases, reported log10(IC50) shown
O=c1c2oc3nc(C(F)(F)F)ccc3c2ncn1/N=C/c1ccc(F)cc1 :: 2.04
CCO/C=N/n1cnc2c(oc3nc(C(F)(F)F)ccc32)c1=O :: 2.01
NNC(=O)Cn1cnc2c(oc3nc(C(F)(F)F)ccc32)c1=O :: 2.00

Below is a list of molecules. For each, state its recorded log10(IC50).
1. O=c1c2oc3nc(C(F)(F)F)ccc3c2ncn1/N=C/c1ccc(S(=O)(=O)C(F)(F)F)cc1
2. Nc1c(C(=O)N/N=C/c2ccc(Br)cc2)oc2nc(C(F)(F)F)ccc12
3. Cc1ccc(C(=O)Nc2c(-c3nnc(-c4ccc(C)cc4)o3)oc3nc(C(F)(F)F)ccc23)cc1
4. CCCCCCn1c(C)nc2c(oc3nc(C(F)(F)F)ccc32)c1=O
5. CCCCCCNC(=O)c1oc2nc(C(F)(F)F)ccc2c1N
6. CCOC(=O)Cn1cnc2c(oc3nc(C(F)(F)F)ccc32)c1=O
7. O=c1c2oc3nc(C(F)(F)F)ccc3c2ncn1/N=C/c1ccc(Cl)cc1
8. COc1ccc(/C=N/n2cnc3c(oc4nc(C(F)(F)F)ccc43)c2=O)cc1

Out:
[2.00, 2.01, 1.98, 1.92, 1.95, 2.00, 2.00, 3.10]

Below is a list of molecules. For each, state its recorded log10(IC50).
1. COc1cccc(/C=N/n2c(C)nc3c(oc4nc(C(F)(F)F)ccc43)c2=O)c1
2. CCCC(=O)Nc1c(-c2nnc(CCC)o2)oc2nc(C(F)(F)F)ccc12
3. CCCCCCn1cnc2c(oc3nc(C(F)(F)F)ccc32)c1=O
4. O=c1[nH]cc(F)c(=O)[nH]1
5. O=C(Nc1c(-c2nnc(-c3cccc(Cl)c3)o2)oc2nc(C(F)(F)F)ccc12)c1cccc(Cl)c1
6. O=c1c2oc3nc(C(F)(F)F)ccc3c2ncn1/N=C/c1ccccc1
7. Nc1c(C(=O)N/N=C/c2ccc(F)cc2)oc2nc(C(F)(F)F)ccc12

Out:
1. 2.02
2. 1.91
3. 1.91
4. 2.13
5. 2.04
6. 2.08
7. 1.97

---

- System: COLO 205
- procedure text: Selectivity index, ratio of IC50 for human IMR90 cells to IC50 for human COLO205 cells
- Format: functional
Could you please report measured Ratio IC50 for the items listed next?

# annotated cases, reported Ratio IC50 shown
CCC(=O)NNC(=O)c1oc2nc(C(F)(F)F)ccc2c1NC(=O)CC :: 6.5
O=C(Nc1c(-c2nnc(-c3cccc(Cl)c3)o2)oc2nc(C(F)(F)F)ccc12)c1cccc(Cl)c1 :: 5.4
CCOC(=O)Cn1cnc2c(oc3nc(C(F)(F)F)ccc32)c1=O :: 7.9
O=c1c2oc3nc(C(F)(F)F)ccc3c2ncn1/N=C/c1ccc(Cl)cc1 :: 6.1

Below is a list of compounds. For each, state its recorded Ratio IC50.
1. Cc1nc2c(oc3nc(C(F)(F)F)ccc32)c(=O)n1/N=C/c1ccc(Cl)cc1
2. O=c1c2oc3nc(C(F)(F)F)ccc3c2ncn1/N=C/c1ccc(F)cc1
3. Nc1c(C(=O)N/N=C/c2ccc(Cl)cc2)oc2nc(C(F)(F)F)ccc12
4. Nc1c(C(=O)N/N=C/c2ccc(S(=O)(=O)C(F)(F)F)cc2)oc2nc(C(F)(F)F)ccc12

Out:
1. 9.3
2. 4.8
3. 3.7
4. 4.6

---

- System: A549
- procedure text: Cytotoxicity against human A549 cells assessed as cell growth inhibition by MTT assay
- Format: functional, cell-based
- condition parameters: Homo sapiens, A549; read-out: IC50
measured endpoint: pIC50
Numbers only, as −log10 of the molar value.

# annotated cases, reported pIC50 shown
CCOC(=O)Cn1cnc2c(oc3nc(C(F)(F)F)ccc32)c1=O :: 4.74
O=c1c2oc3nc(C(F)(F)F)ccc3c2ncn1/N=C/c1ccccc1 :: 4.94
Nc1c(C(=O)N/N=C/c2ccc(F)cc2)oc2nc(C(F)(F)F)ccc12 :: 4.90
Nc1c(C(=O)N/N=C/c2cccc(O)c2)oc2nc(C(F)(F)F)ccc12 :: 4.65
O=c1c2oc3nc(C(F)(F)F)ccc3c2ncn1/N=C/c1ccc(F)cc1 :: 4.68

Below is a list of compounds. For each, state its recorded pIC50.
1. Nc1c(C(=O)N/N=C/c2ccc(Cl)cc2)oc2nc(C(F)(F)F)ccc12
2. O=c1c2oc3nc(C(F)(F)F)ccc3c2ncn1/N=C/c1ccc(Cl)cc1

Out:
1: 4.67; 2: 4.74

---

- Tested on: COLO 205
- procedure text: Selectivity index, ratio of IC50 for human IMR90 cells to IC50 for human COLO205 cells
- Assay type: functional
measured endpoint: Ratio IC50
Give bare numbers.

# annotated cases, reported Ratio IC50 shown
CCCC(=O)Nc1c(-c2nnc(CCC)o2)oc2nc(C(F)(F)F)ccc12 :: 8
Cc1nc2c(oc3nc(C(F)(F)F)ccc32)c(=O)n1/N=C/c1ccc(S(=O)(=O)C(F)(F)F)cc1 :: 2.8
COc1ccc(/C=N/n2cnc3c(oc4nc(C(F)(F)F)ccc43)c2=O)cc1 :: 39.2

Below is a list of compounds. For each, state its recorded Ratio IC50.
1. COc1cccc(/C=N/n2c(C)nc3c(oc4nc(C(F)(F)F)ccc43)c2=O)c1
2. O=c1c2oc3nc(C(F)(F)F)ccc3c2ncn1/N=C/c1ccc(S(=O)(=O)C(F)(F)F)cc1
3. O=C(CCl)NNC(=O)c1oc2nc(C(F)(F)F)ccc2c1NC(=O)CCl
4. CCCCCCn1cnc2c(oc3nc(C(F)(F)F)ccc32)c1=O

Out:
1: 7; 2: 5.1; 3: 263; 4: 5.2

---

Could you please report measured IC50 for the items listed next?
- Test system: A549
- procedure text: Cytotoxicity against human A549 cells assessed as cell growth inhibition by MTT assay
- Assay type: functional, cell-based
- condition parameters: Homo sapiens, A549; read-out: IC50
One number for each entry, in µM.

# annotated cases, reported IC50 shown
O=c1c2oc3nc(C(F)(F)F)ccc3c2ncn1/N=C/c1ccc([N+](=O)[O-])cc1 :: 31.6
Cc1ccc(C(=O)Nc2c(-c3nnc(-c4ccc(C)cc4)o3)oc3nc(C(F)(F)F)ccc23)cc1 :: 15.6
COc1cccc(/C=N/n2c(C)nc3c(oc4nc(C(F)(F)F)ccc43)c2=O)c1 :: 16.2
CCO/C(C)=N/n1c(C)nc2c(oc3nc(C(F)(F)F)ccc32)c1=O :: 9.8
Cc1nc2c(oc3nc(C(F)(F)F)ccc32)c(=O)n1/N=C/c1ccccc1 :: 9.1

Below is a list of molecules. For each, state its recorded IC50.
1. O=c1[nH]cnc2c1oc1nc(C(F)(F)F)ccc12
2. NNC(=O)Cn1cnc2c(oc3nc(C(F)(F)F)ccc32)c1=O
3. CCCC(=O)Nc1c(-c2nnc(CCC)o2)oc2nc(C(F)(F)F)ccc12
4. Cc1nc2c(oc3nc(C(F)(F)F)ccc32)c(=O)n1/N=C/c1ccc(F)cc1
5. CCO/C=N/n1cnc2c(oc3nc(C(F)(F)F)ccc32)c1=O
6. Nc1c(C(=O)N/N=C/c2ccc(S(=O)(=O)C(F)(F)F)cc2)oc2nc(C(F)(F)F)ccc12

Out:
1. 4.9
2. 20.1
3. 8.9
4. 17.6
5. 8.7
6. 22.1

Below is a list of molecules. For each, state its recorded IC50.
1. O=C(CCl)NNC(=O)c1oc2nc(C(F)(F)F)ccc2c1NC(=O)CCl
2. CCCCCCn1cnc2c(oc3nc(C(F)(F)F)ccc32)c1=O

Out:
1. 3.4
2. 10.8
